B1: 2M8U (parent)
chain: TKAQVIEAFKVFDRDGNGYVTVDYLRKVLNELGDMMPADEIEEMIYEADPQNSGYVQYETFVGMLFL

- Variants of: B1
- assay.method.text: folding stability dG (cDNA display proteolysis); higher = more stable
- condition.info: PBS, room temperature
parameter.measured: folding stability dG (kcal/mol)
Reply with just the number (in kcal/mol).

Solved cases (8 shown):
- mutation.label: "T60I"
  parameter.measured: "folding stability dG"
  unit.abbreviation: "kcal/mol"
  test.value: 3.58
- mutation.label: "E47Y"
  parameter.measured: "folding stability dG"
  unit.abbreviation: "kcal/mol"
  test.value: 3.51
- mutation.label: "Q51N"
  parameter.measured: "folding stability dG"
  unit.abbreviation: "kcal/mol"
  test.value: 3.46
- mutation.label: "F66Q"
  parameter.measured: "folding stability dG"
  unit.abbreviation: "kcal/mol"
  test.value: 2.55
- mutation.label: "M64W"
  parameter.measured: "folding stability dG"
  unit.abbreviation: "kcal/mol"
  test.value: 3.59
- mutation.label: "A3D"
  parameter.measured: "folding stability dG"
  unit.abbreviation: "kcal/mol"
  test.value: 3.28
- mutation.label: "A3N"
  parameter.measured: "folding stability dG"
  unit.abbreviation: "kcal/mol"
  test.value: 3.25
- mutation.label: "F66T"
  parameter.measured: "folding stability dG"
  unit.abbreviation: "kcal/mol"
  test.value: 2.83

**Q:** Item under review: `N17H` . Reported folding stability dG?
**A:** 3.03

**Q:** Given the variant `Y55I` , what is its reported folding stability dG?
**A:** 3.37

**Q:** If you can, please state the reported folding stability dG value of `R14S` .
**A:** 3.58

**Q:** Which measured folding stability dG value corresponds to `R26Q` ?
**A:** 2.72

**Q:** Given the entry `M35H` , report its measured folding stability dG.
**A:** 3.01

**Q:** State the recorded folding stability dG for this entry: `V22C`
**A:** 2.88

**Q:** Give its folding stability dG value. Item: `T1E`
**A:** 2.94

**Q:** Quick one: folding stability dG of `T21F` ?
**A:** 3.29

**Q:** So what does the record say about folding stability dG for `L25A` ?
**A:** 3.2

**Q:** Given `Y24G` , state its recorded folding stability dG.
**A:** 3.47

**Q:** // query folding stability dG value for entry `E40A`
**A:** 3.65

**Q:** Fill in the blank: the reported folding stability dG of `V28K` is ____.
**A:** 2.47

**Q:** I would be grateful if you could share the reported folding stability dG for `M35I` .
**A:** 3.69

**Q:** Which folding stability dG value belongs to `G18Y` ?
**A:** 2.36
